System: Plasmodium berghei
Assay: Screen against P. berghei liver stage (PbLuc), transformed with Luciferase, at 10uM
Type: functional, HepG2
Conditions: tested at 10 uM
Screen size: about 69,000 compounds; about 8,600 (12%) showed an effect of 50% or more. For the sample, strong results were picked, then their nearest neighbours and some compounds at random.
# INHIBITION per entry
The reply should read as a number followed by its unit.

Solved cases below.
compound: CCOCCCNC(=O)c1cc(OC)c2ccoc2c1
tgt: Plasmodium berghei
result: 6.11%
//
compound: Cn1c(CNCC2CCCN2c2cccnn2)nc2ccccc21 (stereo unspecified)
tgt: Plasmodium berghei
result: -0.113%
//
compound: CN(C)c1nccnc1C1CCN(C(=O)C2(C)CCCCN2C)CC1 (stereo unspecified)
tgt: Plasmodium berghei
result: 28.6%

Name the reported INHIBITION value associated with the compound COCC1CC2(CCN(Cc3cccc(C#N)c3)CC2)CN1C(C)C (stereo unspecified) -11.2%

What about "CN(CCc1ccccc1)c1cnn(CC(=O)N2CCOCC2)c(=O)c1" ? 20.2%

Record: "CN(CCc1ccccc1)c1cnn(CC(=O)N2CCSCC2)c(=O)c1" 38.5%

Likewise for "CN(Cc1ccc2nsnc2c1)C(=O)Cn1ncc(N(C)C)cc1=O" ? 5.46%

Please answer likewise for "CN(C)c1cnn(CC(=O)N2Cc3ccccc3C2)c(=O)c1" 31.4%

Follow-up entry: "CN1CCO[C@@H]2CN(S(=O)(=O)c3ccccc3F)CC[C@@H]2C1" 21.7%

// repeat for "Nc1cc(C(=O)N2CCC3(CC2)Nc2ccccc2NC3=O)ccn1" and report -31.5%

Check "O=C(c1cnccn1)N1CCc2onc(CN3CCOCC3)c2C1" too. 45.5%
